Origin of measurements: patent US20140088306A1

- Tested System: Aβ1-42 aggregates (Homo sapiens, UniProt P05067)
- Construct: Aβ1-42 aggregates (Peptide Institute, Inc, Osaka) were dissolved in 0.1 mol/L phosphate-buffered saline; purchased Peptide Institute, Inc., Osaka
- Sequence (P05067 672-713 limits assumed): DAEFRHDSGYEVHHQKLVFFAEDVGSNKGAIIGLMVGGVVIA
- Test: Binding evaluation using Aβ peptide aggregation in solution (Example 13)
- Condition Set: inhibition of [^125I]IMPY binding to Aβ1-42 aggregates; value following ± shows SE; read-out: Kl
Measured Parameter: Ki (nM)
Please state the figure in nM; there is no need to write the unit.

| Molecule | Unit Symbol | Ki |
| --- | --- | --- |
| Nc1ccc(-c2cnc3cc(OCCF)ccc3n2)cc1 [Compound D1] | nM | 242 |

Request: Give recorded Ki with Aβ1-42 aggregates (Homo sapiens, UniProt P05067) for the following molecule: CNc1ccc(-c2cnc3cc(OCCF)ccc3n2)cc1 [Compound D2]
Response: 15.7
